Molecular target: T1, Nop15 2xENC (Saccharomyces cerevisiae, UniProt P53927 39-49+39-191, internal_change)
T1 sequence: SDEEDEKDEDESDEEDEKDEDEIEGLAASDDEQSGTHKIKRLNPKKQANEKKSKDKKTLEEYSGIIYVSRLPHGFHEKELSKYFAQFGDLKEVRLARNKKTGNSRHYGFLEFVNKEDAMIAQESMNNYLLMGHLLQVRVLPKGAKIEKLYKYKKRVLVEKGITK
Assay: fluorescence polarization; 150 mM NaCl; Nop15 FP: 10 nM RNA/DNA, 20 mM Tris-HCl pH 7.5, 0.02% Tween 20, 150 or 50 mM NaCl; SRSF3 FP: 10 mM MES pH 5.5, 50 mM Arg/Glu, 0.1 mM TCEP, 0.02% Tween 20; incubated 37 °C 30 min then 25 °C 20 min, read at RT
Conditions: protein: recombinant; tags: N-terminal SUMO tag (pSMT3) cleaved with Ulp1; label: 5' fluorescein; hairpin with 8 bp stem and 9-nt single-stranded region
Endpoint Label: pKd
Please express pKd as -log10 of the molar concentration.

Data request: Which value of pKd has been reported for UGAGUGAUACUCUUUGGAGUUAACUUGAAAUUGCU (structured_RNA) [ITS2 III.A 26-60] in the records?
Data returned: 5.73
